# Run Description: In vivo pharmacokinetics in rats
# Experimental Setup: rat, plasma; male SD rats; intravenous 1 mg/kg, oral 2 mg/kg; read-out: F % (oral bioavailability)
For each entry below, report its bioavailability value.
Provide only the numeric value, understood in %.

IN: Which bioavailability value belongs to CS[C@H]1OC(c2ccc(Cl)c(Cc3ccc(C4=CCC(F)(F)CC4)cc3)c2)[C@H](O)[C@@H](O)[C@@H]1O (stereo partly shown) [WXD001] ?
OUT: 59

IN: Data request, read-out bioavailability, for CS[C@H]1O[C@@H](c2ccc(C)c(Cc3ccc(C4=CCC(F)(F)CC4)cc3)c2)[C@H](O)[C@@H](O)[C@@H]1O [WXD003]
OUT: 47.7

IN: Any idea what bioavailability was measured for CCOc1ccc(Cc2cc([C@@H]3O[C@H](SC)[C@@H](O)[C@H](O)[C@H]3O)ccc2Cl)cc1 [Sotagliflozin, reference compound] ?
OUT: 54.8

IN: Sample CCc1ccc([C@@H]2O[C@H](SC)[C@@H](O)[C@H](O)[C@H]2O)cc1Cc1ccc(C2=CCC(F)(F)CC2)cc1 [WXD010] — what was its bioavailability?
OUT: 56.4

###

# Run Description: In vivo pharmacokinetics in rats
# Experimental Setup: rat, plasma; male SD rats; intravenous 1 mg/kg or oral 2 mg/kg; read-out: Cl (clearance rate)
Kindly state clearance for each of the entries shown.
Output spec: scalar in L/h/kg, unitless text.

IN: Recorded clearance of CS[C@H]1O[C@@H](c2ccc(C)c(Cc3ccc(C4=CCC(F)(F)CC4)cc3)c2)[C@H](O)[C@@H](O)[C@@H]1O [WXD003] , please.
OUT: 0.87

IN: // lookup clearance for CCOc1ccc(Cc2cc([C@@H]3O[C@H](SC)[C@@H](O)[C@H](O)[C@H]3O)ccc2Cl)cc1 [Sotagliflozin, reference compound]
OUT: 1.36

IN: Look up clearance: CCc1ccc([C@@H]2O[C@H](SC)[C@@H](O)[C@H](O)[C@H]2O)cc1Cc1ccc(C2=CCC(F)(F)CC2)cc1 [WXD010]
OUT: 0.484

IN: What value of clearance has been reported for the following compound? CS[C@H]1OC(c2ccc(Cl)c(Cc3ccc(C4=CCC(F)(F)CC4)cc3)c2)[C@H](O)[C@@H](O)[C@@H]1O (stereo partly shown) [WXD001]
OUT: 0.606

###

# Run Description: In vivo pharmacokinetics in Beagle dogs
# Experimental Setup: dog, plasma; male Beagle dogs; intravenous 1 mg/kg or oral 2 mg/kg; read-out: Cl (clearance rate)
Endpoint: clearance (mL/min/kg)
Could you give me the number in mL/min/kg? Just the number is fine.

IN: Would you mind telling me what clearance value was observed for `CCc1ccc([C@@H]2O[C@H](SC)[C@@H](O)[C@H](O)[C@H]2O)cc1Cc1ccc(C2=CCC(F)(F)CC2)cc1` ?
OUT: 6.9

###

# Run Description: In vivo pharmacokinetics in Beagle dogs
# Experimental Setup: dog; male Beagle dogs; single administration, intravenous 1 mg/kg or oral 2 mg/kg; plasma
Endpoint: Cmax (nM)
Record the value in nM, omitting the unit from your answer.

IN: Recorded Cmax of `CCc1ccc([C@@H]2O[C@H](SC)[C@@H](O)[C@H](O)[C@H]2O)cc1Cc1ccc(C2=CCC(F)(F)CC2)cc1` , please.
OUT: 1290

###

# Run Description: In vivo pharmacokinetics in rats
# Experimental Setup: rat, plasma; male SD rats; intravenous 1 mg/kg or oral 2 mg/kg; read-out: Vdss (distribution volume)
Hi there, I'd appreciate the recorded Vd for every entry that follows.
Answer with a number only, understood to be in L/kg.

IN: Field request: Vd | item: `CS[C@H]1O[C@@H](c2ccc(C)c(Cc3ccc(C4=CCC(F)(F)CC4)cc3)c2)[C@H](O)[C@@H](O)[C@@H]1O`
OUT: 2.94

IN: What value of Vd has been recorded for this entry: `CCc1ccc([C@@H]2O[C@H](SC)[C@@H](O)[C@H](O)[C@H]2O)cc1Cc1ccc(C2=CCC(F)(F)CC2)cc1`
OUT: 2.48

IN: Request the reported Vd associated with CCOc1ccc(Cc2cc([C@@H]3O[C@H](SC)[C@@H](O)[C@H](O)[C@H]3O)ccc2Cl)cc1 [Sotagliflozin, reference compound]
OUT: 2.01

IN: Give the measured Vd of CS[C@H]1OC(c2ccc(Cl)c(Cc3ccc(C4=CCC(F)(F)CC4)cc3)c2)[C@H](O)[C@@H](O)[C@@H]1O (stereo partly shown) .
OUT: 3.86

###

# Run Description: In vivo pharmacokinetics in Beagle dogs
# Experimental Setup: dog, plasma; male Beagle dogs; intravenous 1 mg/kg, oral 2 mg/kg; read-out: F % (oral bioavailability)
Endpoint: bioavailability (%)
Report as a plain number; the unit % is understood.

IN: Bench note: what bioavailability did `CCc1ccc([C@@H]2O[C@H](SC)[C@@H](O)[C@H](O)[C@H]2O)cc1Cc1ccc(C2=CCC(F)(F)CC2)cc1` show?
OUT: 82
